- measurementProtocol: qHTS assay to identify small molecule antagonists of the estrogen related receptor signaling pathway with the pleiotropic PPARgamma coactivator (PGC) from Tox21 10K library - cell viability counter screen (AID 1224840); also: % is scaled to controls: 0 for no effect and ±100 for the full control effect; nearly all actives have a fitted effect of over 40% in size
- testContext: PGC/ERR reporter cells viability, CellTiter-Fluor, 17.5 h; series mostly up to 92.4 µM
Inconclusive results are not listed. Calls of active or inactive are those of the source. Calls follow the shape of the dose curve; as a rule, active = well fitted cell-killing curve with a large enough effect in the repeat runs (not every such curve was filed as active); inconclusive = weak or mixed curves, or effect the other way; inactive = no such curve, though single readings can be large or run the other way.
parameterMeasured: viability change, negative = cytotoxic

# query: viability change, negative = cytotoxic of entry `C[C@H]1C[C@H]2[C@@H]3CCC4=CC(=O)C=C[C@]4(C)[C@H]3C(=O)C[C@]2(C)[C@@]1(O)C(=O)CO` inactive

Please do the same for COc1c(N2CCNC(C)C2)c(F)cc2c(=O)c(C(=O)O)cn(C3CC3)c12 (stereo not drawn) as well. inactive

Please do the same for `CCCCCCCCCC[N+](C)(C)[O-]` as well. inactive

Please do the same for CCC(C)(CN(C)C)OC(=O)c1ccccc1 (stereo not drawn) as well. inactive

---
# query: viability change, negative = cytotoxic of entry `Nc1ccn([C@@H]2O[C@H](CO)[C@@H](O)[C@@H]2O)c(=O)n1` inactive

Please do the same for CCCCCC(C)N (stereo not drawn) as well. inactive

Please do the same for C=CC(C)(CCC=C(C)C)OC(=O)CC (stereo not drawn) as well. inactive

Please do the same for `c1coc(CNc2ncnc3nc[nH]c23)c1` as well. inactive

Please do the same for `O=[N+]([O-])c1ccc(/C=N\O)o1` as well. inactive

Please do the same for `CN1CCN(c2cc3c(nn2)Oc2ccccc2N3C)CC1` as well. 2.34% [at 19 µM] (inactive)

Please do the same for `[O-][n+]1cccc(CO)c1` as well. inactive

Please do the same for CC(C)CC(C)(N)C#N (stereo not drawn) as well. inactive

Please do the same for `O=C(O)CNC(=O)c1ccc(CO)o1` as well. inactive

# credit: PubChem BioAssay (Tox21)
